Entries and their measured Desorp. (%) follow.
EXPERIMENT SUMMARY: Hygroscopicity by dynamic vapor sorption (DVS) at 25° C.
Type: physicochemical
MEASUREMENT SETUP: DVS 25° C., 20% RH, 1st desorption
Give just the numeric value; % need not be written.

Some solved entries appear below for comparison.
>>> df
                                   compound  observed_result
0  CCOc1cc(C(=O)N(C)Cc2cnc(CO)c3cn[nH]c23)ccc1-c1cc(F)cc(F)c1.Cl [HCl salt Pattern A]             0.65
1  CCOc1cc(C(=O)N(C)Cc2cnc(CO)c3cn[nH]c23)ccc1-c1cc(F)cc(F)c1.[Na] [Sodium salt Pattern A]             0.28
2  CCOc1cc(C(=O)N(C)Cc2cnc(CO)c3cn[nH]c23)ccc1-c1cc(F)cc(F)c1 [Free form Pattern A]             3.74

# context switch: different compound, same Desorp. (%)
Looking for the measured Desorp. (%) of CCOc1cc(C(=O)N(C)Cc2cnc(CO)c3cn[nH]c23)ccc1-c1cc(F)cc(F)c1.O=P(O)(O)O [Phosphate salt Pattern A] , can you help?
0.16

---

EXPERIMENT SUMMARY: Hygroscopicity by dynamic vapor sorption (DVS) at 25° C.
Assay type: physicochemical
MEASUREMENT SETUP: DVS 25° C., 80% RH, 1st sorption
Entries and their measured Sorp. (%) follow.

Some solved entries appear below for comparison.
>>> df
                                   molecule  observed_result
0  CCOc1cc(C(=O)N(C)Cc2cnc(CO)c3cn[nH]c23)ccc1-c1cc(F)cc(F)c1.Cl [HCl salt Pattern A]            1.00%
1  CCOc1cc(C(=O)N(C)Cc2cnc(CO)c3cn[nH]c23)ccc1-c1cc(F)cc(F)c1.O=P(O)(O)O [Phosphate salt Pattern A]            0.45%
2  CCOc1cc(C(=O)N(C)Cc2cnc(CO)c3cn[nH]c23)ccc1-c1cc(F)cc(F)c1.[Na] [Sodium salt Pattern A]            2.71%

# context switch: different molecule, same Sorp. (%)
Looking for the measured Sorp. (%) of CCOc1cc(C(=O)N(C)Cc2cnc(CO)c3cn[nH]c23)ccc1-c1cc(F)cc(F)c1 [Free form Pattern A] , can you help?
4.12%

---

EXPERIMENT SUMMARY: Hygroscopicity by dynamic vapor sorption (DVS) at 25° C.
Type: physicochemical
MEASUREMENT SETUP: DVS 25° C., 60% RH, 2nd desorption
VALUE KIND: Desorp. (%)
Give just the numeric value; % need not be written.

Some solved entries appear below for comparison.
>>> df
                                   molecule   value_kind  observed_result
0  CCOc1cc(C(=O)N(C)Cc2cnc(CO)c3cn[nH]c23)ccc1-c1cc(F)cc(F)c1.[Na] [Sodium salt Pattern A]  Desorp. (%)             2.23
1  CCOc1cc(C(=O)N(C)Cc2cnc(CO)c3cn[nH]c23)ccc1-c1cc(F)cc(F)c1.Cl [HCl salt Pattern A]  Desorp. (%)             0.68

Looking for the measured Desorp. (%) of CCOc1cc(C(=O)N(C)Cc2cnc(CO)c3cn[nH]c23)ccc1-c1cc(F)cc(F)c1 [Free form Pattern A] , can you help?
3.99

Looking for the measured Desorp. (%) of CCOc1cc(C(=O)N(C)Cc2cnc(CO)c3cn[nH]c23)ccc1-c1cc(F)cc(F)c1.O=P(O)(O)O [Phosphate salt Pattern A] , can you help?
0.35

---

EXPERIMENT SUMMARY: Bulk stability (solid state, 1 week; HPLC, XRPD, IC, color)
Type: physicochemical
MEASUREMENT SETUP: Solid state, 60° C., closed
VALUE KIND: Bulk (HPLC) Purity (%)
Give just the numeric value; % need not be written.

Some solved entries appear below for comparison.
>>> print(df.to_string())
                                   molecule  observed_result
0  CCOc1cc(C(=O)N(C)Cc2cnc(CO)c3cn[nH]c23)ccc1-c1cc(F)cc(F)c1.Cl [HCl salt Pattern A]             98.9
1  CCOc1cc(C(=O)N(C)Cc2cnc(CO)c3cn[nH]c23)ccc1-c1cc(F)cc(F)c1 [Free form Pattern A]             97.8
2  CCOc1cc(C(=O)N(C)Cc2cnc(CO)c3cn[nH]c23)ccc1-c1cc(F)cc(F)c1.[Na] [Sodium salt Pattern A]             98.7

Looking for the measured Bulk (HPLC) Purity of CCOc1cc(C(=O)N(C)Cc2cnc(CO)c3cn[nH]c23)ccc1-c1cc(F)cc(F)c1.O=P(O)(O)O [Phosphate salt Pattern A] , can you help?
98.2

---

Entries and their measured Sorp. (%) follow.
EXPERIMENT SUMMARY: Hygroscopicity by dynamic vapor sorption (DVS) at 25° C.
Type: physicochemical
MEASUREMENT SETUP: DVS 25° C., 0% RH, 2nd sorption
Give just the numeric value; % need not be written.

Some solved entries appear below for comparison.
>>> df
                                   compound  value_kind  uom  observed_result
0  CCOc1cc(C(=O)N(C)Cc2cnc(CO)c3cn[nH]c23)ccc1-c1cc(F)cc(F)c1.O=P(O)(O)O [Phosphate salt Pattern A]   Sorp. (%)    %             0.00
1  CCOc1cc(C(=O)N(C)Cc2cnc(CO)c3cn[nH]c23)ccc1-c1cc(F)cc(F)c1.Cl [HCl salt Pattern A]   Sorp. (%)    %             0.15
2  CCOc1cc(C(=O)N(C)Cc2cnc(CO)c3cn[nH]c23)ccc1-c1cc(F)cc(F)c1 [Free form Pattern A]   Sorp. (%)    %             0.01

Looking for the measured Sorp. (%) of CCOc1cc(C(=O)N(C)Cc2cnc(CO)c3cn[nH]c23)ccc1-c1cc(F)cc(F)c1.[Na] [Sodium salt Pattern A] , can you help?
0.00

---

EXPERIMENT SUMMARY: Solubility at 37° C. in buffers and biorelevant media, XRPD of residual solid
Assay type: physicochemical
MEASUREMENT SETUP: pH 1.2 HCl buffer, 37° C., 24 h
VALUE KIND: pH of supernatant at 24 h

                                   compound  observed_result
0  CCOc1cc(C(=O)N(C)Cc2cnc(CO)c3cn[nH]c23)ccc1-c1cc(F)cc(F)c1 [Free form Pattern A]            (1.2)
1  CCOc1cc(C(=O)N(C)Cc2cnc(CO)c3cn[nH]c23)ccc1-c1cc(F)cc(F)c1.Cl [HCl salt Pattern A]            (1.2)
2  CCOc1cc(C(=O)N(C)Cc2cnc(CO)c3cn[nH]c23)ccc1-c1cc(F)cc(F)c1.O=P(O)(O)O [Phosphate salt Pattern A]            (1.2)
3  CCOc1cc(C(=O)N(C)Cc2cnc(CO)c3cn[nH]c23)ccc1-c1cc(F)cc(F)c1.[Na] [Sodium salt Pattern A]            (1.3)

---

Entries and their measured solubility at 2 h follow.
EXPERIMENT SUMMARY: Solubility at 37° C. in buffers and biorelevant media, XRPD of residual solid
Format: physicochemical
MEASUREMENT SETUP: aqueous buffer, thermodynamic from solid; pH 6.8 phosphate buffer (50 mM), 37° C., 2 h
Give just the numeric value; µg/mL need not be written.

>>> print(df.to_string())
                                   compound    uom  observed_result
0  CCOc1cc(C(=O)N(C)Cc2cnc(CO)c3cn[nH]c23)ccc1-c1cc(F)cc(F)c1.O=P(O)(O)O [Phosphate salt Pattern A]  µg/mL              2.4
1  CCOc1cc(C(=O)N(C)Cc2cnc(CO)c3cn[nH]c23)ccc1-c1cc(F)cc(F)c1.Cl [HCl salt Pattern A]  µg/mL              3.3
2  CCOc1cc(C(=O)N(C)Cc2cnc(CO)c3cn[nH]c23)ccc1-c1cc(F)cc(F)c1.[Na] [Sodium salt Pattern A]  µg/mL              3.1

# context switch: different compound, same solubility at 2 h
Looking for the measured solubility at 2 h of CCOc1cc(C(=O)N(C)Cc2cnc(CO)c3cn[nH]c23)ccc1-c1cc(F)cc(F)c1 [Free form Pattern A] , can you help?
4.7

---

Entries and their measured solubility at 2 h follow.
EXPERIMENT SUMMARY: Solubility at 37° C. in buffers and biorelevant media, XRPD of residual solid
Type: physicochemical
MEASUREMENT SETUP: aqueous with cosolvent or surfactant or cyclodextrin, thermodynamic from solid; 2% HPMC + 1% Pluronic F68 in pH 4.5 acetate buffer (50 mM), 37° C., 2 h
Give just the numeric value; mg/mL need not be written.

Some solved entries appear below for comparison.
>>> print(df.to_string())
                                   compound    uom  observed_result
0  CCOc1cc(C(=O)N(C)Cc2cnc(CO)c3cn[nH]c23)ccc1-c1cc(F)cc(F)c1 [Free form Pattern A]  mg/mL           0.0244
1  CCOc1cc(C(=O)N(C)Cc2cnc(CO)c3cn[nH]c23)ccc1-c1cc(F)cc(F)c1.Cl [HCl salt Pattern A]  mg/mL           0.0295
2  CCOc1cc(C(=O)N(C)Cc2cnc(CO)c3cn[nH]c23)ccc1-c1cc(F)cc(F)c1.O=P(O)(O)O [Phosphate salt Pattern A]  mg/mL           0.0164

# context switch: different compound, same solubility at 2 h
Looking for the measured solubility at 2 h of CCOc1cc(C(=O)N(C)Cc2cnc(CO)c3cn[nH]c23)ccc1-c1cc(F)cc(F)c1.[Na] [Sodium salt Pattern A] , can you help?
0.273
